Origin of measurements: paper PMC7023430

- Test system: Candida albicans ATCC 44859
- measurement-description: Antifungal microdilution broth method, C. albicans
- Type: cell-based
- condition: ATCC44859, 24 h, read-out: MIC CA 24 h
assay-metric: MIC (µM)
Use µM as the unit, but write only the number.

{"smiles-notation": "O=C(O)c1ccc(N=Cc2cc([N+](=O)[O-])ccc2O)cc1", "MIC (µM)": 500}
{"smiles-notation": "O=C(O)c1ccc(N=Cc2cc(Cl)cc(I)c2O)cc1", "MIC (µM)": 7.81}
{"smiles-notation": "O=C(O)c1ccc(N=Cc2ccc([N+](=O)[O-])o2)cc1", "MIC (µM)": 250}
{"smiles-notation": "COc1ccc(O)c(C=Nc2ccc(C(=O)O)cc2)c1", "MIC (µM)": 250}
{"smiles-notation": "O=C(O)c1ccc(N=Cc2c(O)cccc2Cl)cc1", "MIC (µM)": 125}

MIC in this record for O=C(O)c1ccc(N=Cc2cc(Cl)cc(Br)c2O)cc1 : 31.2

MIC in this record for O=C(O)c1ccc(N=Cc2cc(Br)ccc2O)cc1 : 62.5

MIC in this record for O=C(O)c1ccc(N=Cc2cc(I)ccc2O)cc1 : 62.5

* * *

# MIC listing for each entry below
- System: Mycobacterium tuberculosis H37Rv (331/88)
- measurement-description: Antimycobacterial micromethod in Šula's medium, M. tuberculosis
- Type: cell-based
- condition: 504 h, 21 days incubation at 37 °C, read-out: MIC Mtb. 331/88 21 d
Use µM as the unit, but write only the number.

The examples below pair each entry with its known result.
{"smiles-notation": "O=C(O)c1ccc(N=Cc2cc(Cl)cc(Cl)c2O)cc1", "numeric-result": 500}
{"smiles-notation": "Cc1ccc(O)c(C=Nc2ccc(C(=O)O)cc2)c1", "numeric-result": 500}
{"smiles-notation": "O=C(O)c1ccc(N=Cc2cc(Cl)cc(I)c2O)cc1", "numeric-result": 250}
{"smiles-notation": "O=C(O)c1ccc(N=Cc2ccc(Cl)cc2O)cc1", "numeric-result": 500}

Query molecule follows.
MIC in this record for O=C(O)c1ccc(N=Cc2cc(Cl)cc(Br)c2O)cc1 : 500

* * *

- Tested on: Klebsiella pneumoniae D 11750/08
- measurement-description: Antibacterial microdilution broth method, K. pneumoniae
- condition: K. pneumoniae D 11750/08; 48 h incubation
# MIC KP 48 h listing for each entry below

The examples below pair each entry with its known result.
{"compound": "O=C(O)c1ccc(N=Cc2cc(Cl)ccc2O)cc1 [1c]", "MIC KP 48 h": ">500 µM"}
{"compound": "O=C(O)c1ccc(N=Cc2cc(O)ccc2O)cc1 [1i]", "MIC KP 48 h": "500 µM"}
{"compound": "O=C(O)c1ccc(N=Cc2cc(F)ccc2O)cc1 [1b]", "MIC KP 48 h": ">500 µM"}
{"compound": "O=C(O)c1ccc(N=Cc2cc(Cl)cc(Br)c2O)cc1 [1o]", "MIC KP 48 h": "500 µM"}
{"compound": "O=C(O)c1ccc(N=Cc2cc(Br)ccc2O)cc1 [1d]", "MIC KP 48 h": ">250 µM"}

MIC KP 48 h in this record for COc1ccc(O)c(C=Nc2ccc(C(=O)O)cc2)c1 [1h] : >500 µM
